# system_name: T1, PD-1 protein (human, UniProt Q15116 25-167, limits assumed)
# T1 construct: also called human PD-1
# test_name: ELISA, PD-1 coated
Here the recorded OD450 at 0.002 µg/mL is given for each entry.
Dear colleague, please return just the value in OD450, with no unit written.

Reference set, count: 5
| binder | unit_abbreviation | OD450 at 0.002 µg/mL |
| --- | --- | --- |
| 504#SS5 (Fc fusion, VHH-FC construct from HEK293 cells; not shown: The (G4S)3 linker leading to it is left out with it) VHH: QVQLVESGGGSAQAGGSLRLSCTASGRPFSIYDMGWFRQAPGKERESVAVINLSRGNTYYADSVKGRFTISLDSAKNTVYLQMNSLKPEDTAVYSCGVDRRQYGLGIPPLADYWGQGTQVTVSS | OD450 | 1.56 |
| 504#SS10 (Fc fusion, not shown: a dimerising Fc or GST; small tags and cut ends, VHH-FC construct from HEK293 cells) VHH: EVQLVESGGGLVQPGASLRLSCTASGSIFSIYAMGWYRQAPGKQRELVAYITSGGSTTYADSVKGRFTISRDNAKNTVYLQMNSLKPEDTAVYYCNRGNYYRDYKPEFWGQGTQVTVSS | OD450 | 0.03 |
| 504#SS23 (Fc fusion, not shown: a dimerising Fc or GST; small tags and cut ends, VHH-FC construct from HEK293 cells) VHH: QVQLVESGGGLVQPGGSLRLSCAASGFTFSSYVMSWVRQAPGKGLEWVSAINSGGSSSSYPESVKDRFTVSRDNAKNTLYLQMNSLKPEDTAVYFCAAKNVPGFYYSDYANHEYDYWGQGTQVTVSS | OD450 | 0.19 |
| 504#SS1 (Fc fusion, VHH-FC construct from HEK293 cells; not shown: The (G4S)3 linker leading to it is left out with it) VHH: QVQLVESGGGLVQAGGSLRLSCAASGLTFSDFAMGWFRQAPGKEREFVAAISWSGGQTYNVESAKGRFTISRDNAKNTVYLQMNKLKPDDTAVYYCAASTMVVTTVAADYKYWGQGTQVTVSS | OD450 | 0.03 |
| 504#SS30 (Fc fusion, not shown: a dimerising Fc or GST; small tags and cut ends, VHH-FC construct from HEK293 cells) VHH: EVQLVETGGGLVQAGGSLRLACEVSGRTFSSYAMGWFRQAPGREREFVASIRVSGGITDYADSVKGRFTISRDNAKDTVYLQMINLKPEDTAVYYCNADISRYRFSRGDYWGKGTLVTVSS | OD450 | 0.04 |

Consider the additional binder presented here.
Lab note: 504#SS8 (Fc fusion, VHH-FC construct from HEK293 cells; not shown: The (G4S)3 linker leading to it is left out with it) VHH: EVQVVESGGGLVQAGGSLRLSCTASGRTFSNYAMGWFRQAPGKEREFVASVTWGGSGTFYADSVKGRFTISRDNIKNTVYLQMNSLKPEDTAVYYCAADNVGDSWYSDDYKYWGQGTQVTVSS gave OD450 at 0.002 µg/mL of 0.03

The measurements presented in this section are drawn from patent US20230002757A1.
